// provenance: paper PMC10926604

# TARGET ENTITY: UniProt:P78324

{"SMILES NOTATION": "Cc1cc(C)cc(NS(=O)(=O)c2ccc3[nH]cc(C(=O)NCCc4ccccc4)c(=O)c3c2)c1", "Kd (nM)": 550}

---

# TARGET ENTITY: human PD-L1 (hPD-L1) (Homo sapiens)
# Construct: PD-L1-IgV-His (human: 10,084-H08H, mouse: 50,010-M08H, Sino Biological); His
# Sequence (Q9NZQ7 19-127 limits assumed): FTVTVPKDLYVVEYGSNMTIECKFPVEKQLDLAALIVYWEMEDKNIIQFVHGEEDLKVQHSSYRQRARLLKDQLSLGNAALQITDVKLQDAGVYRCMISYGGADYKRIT
# TEST DESCRIPTION: MST binding assay, human PD-L1
# COND: PD-L1-IgV-His, read-out: dissociation constant (KD) for human PD-L1
QUANTITY NAME: Kd (nM)

{"SMILES NOTATION": "Cc1cc(C)cc(NS(=O)(=O)c2ccc3[nH]cc(C(=O)NCCc4ccccc4)c(=O)c3c2)c1", "QUANTITY NAME": "Kd", "READOUT UNITS": "nM", "RECORDED MEASUREMENT": 29}

---

# TARGET ENTITY: human CD47/SIRPα (Homo sapiens, UniProt P78324)
# Sequence (P78324 31-370 limits assumed): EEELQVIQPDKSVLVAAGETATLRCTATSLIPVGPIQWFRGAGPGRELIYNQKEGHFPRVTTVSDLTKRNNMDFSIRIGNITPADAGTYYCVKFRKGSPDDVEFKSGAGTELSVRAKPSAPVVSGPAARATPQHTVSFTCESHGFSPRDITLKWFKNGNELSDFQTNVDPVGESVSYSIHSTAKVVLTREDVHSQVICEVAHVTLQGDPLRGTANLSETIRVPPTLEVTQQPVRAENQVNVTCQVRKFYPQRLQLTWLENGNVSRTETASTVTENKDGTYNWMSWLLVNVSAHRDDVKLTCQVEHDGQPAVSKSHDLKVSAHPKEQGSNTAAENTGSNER
# TEST DESCRIPTION: Cell-based blocking assay, human CD47/SIRPα
# COND: CHO-K1-hCD47 cells, SIRPα-Fc, flow cytometry; read-out: IC50 for blocking human CD47/SIRPα interaction
# Procedure: The CHO-K1 cell line with stable expression of CD47 and PD-1 was constructed previously by our group. […] The mean fluorescence intensity (MFI) of the cells was detected using flow cytometry (BD FACSCalibur) and the blocking efficiency was calculated.
pIC50: −log10 of the molar value.

{"COMPOUND": "Cc1cc(C)cc(NS(=O)(=O)c2ccc3[nH]cc(C(=O)NCCc4ccccc4)c(=O)c3c2)c1 [SMC18]", "pIC50": 4.75}

---

# TARGET ENTITY: murine SIRPα (mSIRPα) (Mus musculus, UniProt P97797)
# Sequence (P97797 32-137 limits assumed): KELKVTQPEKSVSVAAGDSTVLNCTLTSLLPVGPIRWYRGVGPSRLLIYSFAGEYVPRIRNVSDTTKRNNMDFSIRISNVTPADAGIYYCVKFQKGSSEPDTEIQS
pKd: −log10 of the molar value.
QUANTITY NAME: pKd

{"SMILES NOTATION": "Cc1cc(C)cc(NS(=O)(=O)c2ccc3[nH]cc(C(=O)NCCc4ccccc4)c(=O)c3c2)c1", "RECORDED MEASUREMENT": 5.60}

---

# TARGET ENTITY: murine CD47/SIRPα (Mus musculus)
# TEST DESCRIPTION: Cell-based blocking assay, murine CD47/SIRPα
# COND: CHO-K1-mCD47 cells, SIRPα-Fc, flow cytometry; read-out: IC50 for blocking murine CD47/SIRPα interaction
pIC50: −log10 of the molar value.
QUANTITY NAME: pIC50

{"SMILES NOTATION": "Cc1cc(C)cc(NS(=O)(=O)c2ccc3[nH]cc(C(=O)NCCc4ccccc4)c(=O)c3c2)c1", "TARGET ENTITY": "murine CD47/SIRPα (Mus musculus)", "RECORDED MEASUREMENT": 4.23}
